Test: Inhibition of Helicobacter pylori IMPDH incubated for 10 mins in presence of […] by multilabel reader analysis
measured.endpoint: pIC50
Note on units: pIC50 is unitless, being -log10 of a concentration expressed in mol/L.

{"test.smiles": "COc1ccc(-c2oc3ccccc3c(=O)c2OCC(=O)Nc2ccc3c(c2)COC3=O)cc1", "pIC50": 5.66}

// below: pIC50 requested for another compound
Lookup: Query: pIC50; subject: O=C(COc1ccc2ccccc2c1)Nc1ccc2c(c1)COC2=O
Found: 5.66
